Assay: in vivo
Conditions: mouse, maximum tolerated dose, single intravenous dose, healthy mice, survival and weights recorded up to 14 days
# MTD at 14 days per record follows
Write it as a number; the unit mg/kg goes unstated.

Field: example entries. Status: answers known.
INSERT INTO assay_data (smiles_str, unit_label, endpoint_result) VALUES
  ('CCC(=O)O[C@H]1C=C2c3cc4c(c(O)c3C(=O)N[C@H]2[C@H](O)[C@@H]1O)OCO4', 'mg/kg', 40),
  ('O=C(O[C@H]1C=C2c3cc4c(c(O)c3C(=O)N[C@H]2[C@H](O)[C@@H]1O)OCO4)c1ccccc1', 'mg/kg', 10);

Ask: For the molecule O=C1c2c(cc3c(c2OCc2ccccc2)OCO3)C2=C[C@H](O)[C@@H](O)[C@@H](O)[C@@H]2N1Cc1ccccc1 , give its measured MTD at 14 days value.
Result: 40

Ask: For the molecule CC(=O)O[C@@H]1[C@H](OC(C)=O)[C@@H](OC(C)=O)C=C2c3cc4c(c(O)c3C(=S)N[C@H]21)OCO4 , give its measured MTD at 14 days value.
Result: 40

Ask: For the molecule CC(C)C(=O)O[C@H]1C=C2c3cc4c(c(O)c3C(=O)N[C@H]2[C@H](O)[C@@H]1O)OCO4 , give its measured MTD at 14 days value.
Result: 40

====

System: six human cancer cell lines (prostate, glioma, pancreas, colon, lung, and breast cancers)
Experiment: MTT test of overall cell growth, mean of six human cancer cell lines
Format: cell-based
Settings: 72 hours of incubation, mean of the six human cancer cell lines, range of molar concentrations giving 50% inhibition of overall tumor cell growth
pIC50: −log10 of the molar value.
measure-name: pIC50

INSERT INTO assay_data (molecule, endpoint_result) VALUES
  ('O=C1c2c(cc3c(c2OCc2ccccc2)OCO3)C2=C[C@H](O)[C@@H](O)[C@@H](O)[C@@H]2N1Cc1ccccc1', '< 5.00'),
  ('CC(=O)O[C@@H]1[C@H](OC(C)=O)[C@@H](OC(C)=O)C=C2c3cc4c(c(O)c3C(=S)N[C@H]21)OCO4', '5.30 to 6.00'),
  ('CC(C)C(=O)O[C@H]1C=C2c3cc4c(c(O)c3C(=O)N[C@H]2[C@H](O)[C@@H]1O)OCO4', '7.30 to 8.00'),
  ('CC(=O)Oc1c2c(cc3c1C(=O)N[C@@H]1C3=C[C@H](OC(C)=O)[C@@H](O)[C@H]1O)OCO2', '6.30 to 7.00'),
  ('O=C1N[C@@H]2C(=C[C@H](O)[C@@H](O)[C@H]2OS(=O)(=O)[O-])c2cc3c(c(O)c21)OCO3.[Na+]', '5.30 to 6.00');

Ask: For the molecule O=C1N[C@@H]2C(=C[C@H](O)[C@@H](O)[C@H]2O)c2cc3c(c(OCc4ccc5ccccc5c4)c21)OCO3 , give its measured pIC50 value.
Result: 5.30 to 6.00

Ask: For the molecule O=C1N[C@@H]2C(=C[C@H](O)[C@@H](O)[C@H]2O)c2cc3c(c(O)c21)OCO3 [narciclasine, reference compound] , give its measured pIC50 value.
Result: 7.30 to 8.00

====

# IC50 per record follows
Test system: six human cancer cell lines (prostate, glioma, pancreas, colon, lung, and breast cancers)
Assay: MTT test of overall cell growth, mean of six human cancer cell lines
Type: cell-based
Conditions: 72 hours of incubation, mean of the six human cancer cell lines, range of molar concentrations giving 50% inhibition of overall tumor cell growth

Field: example entries. Status: answers known.
INSERT INTO measurements (compound, endpoint_result) VALUES
  ('CC(=O)O[C@@H]1[C@H](OC(C)=O)[C@@H](OC(C)=O)C=C2c3cc4c(c(OCc5ccc6ccccc6c5)c3C(=O)N[C@H]21)OCO4 [Compound 7]', '1000 to 5000 nM'),
  ('CCOC(=O)COc1c2c(cc3c1C(=O)N[C@@H]1C3=C[C@H](OC(C)=O)C(OC(C)=O)[C@H]1OC(C)=O)OCO2 (some centres unmarked) [Compound 2]', '> 10000 nM'),
  ('CCOC(=O)COc1c2c(cc3c1C(=O)N(CC(=O)OCC)[C@@H]1C3=C[C@H](OC(C)=O)C(OC(C)=O)[C@H]1OC(C)=O)OCO2 (some centres unmarked) [Compound 3]', '> 10000 nM'),
  ('COC(=O)COc1c2c(cc3c1C(=O)N[C@@H]1C3=C[C@H](O)[C@@H](O)[C@H]1O)OCO2 [Compound 5]', '5000 to 10000 nM'),
  ('CCC(=O)O[C@H]1C=C2c3cc4c(c(O)c3C(=O)N[C@H]2[C@H](O)[C@@H]1O)OCO4 [Compound 19]', '10 to 50 nM');

Ask: For the compound O=C(O[C@H]1C=C2c3cc4c(c(O)c3C(=O)N[C@H]2[C@H](O)[C@@H]1O)OCO4)c1ccccc1 [Compound 13] , give its measured IC50 value.
Result: 10 to 50 nM

Ask: For the compound CC(=O)O[C@H]1C=C2c3cc4c(c(O)c3C(=O)N[C@H]2[C@H](O)[C@@H]1O)OCO4 [Compound 11] , give its measured IC50 value.
Result: 100 to 500 nM

Ask: For the compound O=C(O)COc1c2c(cc3c1C(=O)N[C@@H]1C3=C[C@H](O)[C@@H](O)[C@H]1O)OCO2 [Compound 6] , give its measured IC50 value.
Result: 5000 to 10000 nM
